Organism: Rattus norvegicus
Assay: DrugMatrix - Regimen: Daily Repeat
Format: toxicity, organism-based, Sprague-Dawley
Design: regimen Daily Repeat, gender Male, age 6-8 weeks
Conditions: in vivo, po, 0 mg/kg, 120 h, tissue Plasma, route oral GAVAGE, dose level Control, time 5 day, […]
ASSAY_READOUT: ALANINE AMINOTRANSFERASE (u/L)
Numbers only, in u/L.

Use these answered entries as a reference point.
O=NN(CCCl)C(=O)NCCCl	54.67
COCCOC(=O)C1=C(C)NC(C)=C(C(=O)OC(C)C)C1c1cccc([N+](=O)[O-])c1 (centres undefined)	64.5
COc1ccc2[nH]c([S+]([O-])Cc3ncc(C)c(OC)c3C)nc2c1 (centres undefined)	66.83
CCCCCCCCc1ccc(O)cc1	58.83

Below are some molecules; for each one, tell me its ALANINE AMINOTRANSFERASE.
1. CC(C)(Oc1ccc(C2CCCc3ccccc32)cc1)C(=O)O (centres undefined)
2. Cc1cccc(Nc2ccncc2S(=O)(=O)NC(=O)NC(C)C)c1 [TORSEMIDE]
3. CC(=O)Nc1ccc(O)cc1
4. CC(C)Cc1ccc(C(C)C(=O)O)cc1 (centres undefined)
5. Clc1ccc(Cl)cc1
6. CC/C(=C(/CC)c1ccc(O)cc1)c1ccc(O)cc1

Return:
[57.67, 57.83, 54.67, 59.67, 41.33, 62]

For each of the molecules below, note its ALANINE AMINOTRANSFERASE.
1. C[C@]12CC[C@@H]3c4ccc(O)cc4CC[C@H]3[C@@H]1CC[C@@H]2O
2. C[C@H]1O[C@@H](O[C@H]2[C@@H](O)C[C@H](O[C@H]3[C@@H](O)C[C@H](O[C@H]4CC[C@@]5(C)[C@H](CC[C@@H]6[C@@H]5CC[C@]5(C)[C@@H](C7=CC(=O)OC7)CC[C@]65O)C4)O[C@@H]3C)O[C@@H]2C)C[C@H](O)[C@@H]1O
3. CC(=O)Nc1cccc(O)c1
4. CCOC(=O)C1=C(C)NC(C)=C(C(=O)OC)C1c1cccc([N+](=O)[O-])c1 (centres undefined)

Return:
1: 57.83; 2: 68.83; 3: 57; 4: 64.5

src = ChEMBL document CHEMBL3885881
